- testTarget: T1, His-tagged human TIGIT (human, UniProt Q495A1 22-141)
- T1 construct: SPR analyte; also called human TIGIT protein; not shown: His tag
- T1 sequence: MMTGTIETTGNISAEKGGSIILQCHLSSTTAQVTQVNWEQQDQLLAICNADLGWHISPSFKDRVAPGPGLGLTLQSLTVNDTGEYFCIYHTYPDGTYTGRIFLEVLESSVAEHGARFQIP
- experimentSummary: SPR experiment 1, IgG from HEK293 supernatant captured
endpointName: koff (s⁻¹)

1) humanized TIGIT-6 antibody 6VH6.M3 + 6VL1 (antibody, V domains shown, Full-length IgG, tested as HEK293 supernatant) VH: QVQLVQSGAEVKKPGASVKVSCKASGYTITENTMHWVRQAPGQRLEWIGGINPNNGGTSYSQKFQGRATLTVDTSASTAYMELSSLRSEDTAVYYCTRSSYYRYDLDYWGQGTTVTVSS VL: DIQMTQSPSSLSASVGDRVTITCKASQDVKTALAWYQQKPGKAPKLLIYSASYRYTGVPSRFSGSGSGTDFTFTISSLQPEDIATYYCHQHYTTPWTFGGGTKLEIK	0.00012
2) humanized TIGIT-6 antibody 6VH6 + 6VL1.M1 (antibody, V domains shown, Full-length IgG, tested as HEK293 supernatant) VH: QVQLVQSGAEVKKPGASVKVSCKASGYTITENTMHWVRQAPGQRLEWIGGINPNNGGTSYNQQFKGRATLTVDTSASTAYMELSSLRSEDTAVYYCTRSSYYRYDLDYWGQGTTVTVSS VL: DIQMTQSPSSLSASVGDRVTITCQASQDIKTALAWYQQKPGKAPKLLIYSASYRYTGVPSRFSGSGSGTDFTFTISSLQPEDIATYYCHQHYTTPWTFGGGTKLEIK	0.00013
3) humanized TIGIT-6 antibody 6VH5 + 6VL1 (antibody, V domains shown, Full-length IgG, tested as HEK293 supernatant) VH: QVQLVQSGAEVKKPGASVKVSCKASGYTITENTMHWVRQAPGQRLEWIGGINPNNGGTSYNQQFKGRATLTRDTSASTAYMELSSLRSEDTAVYYCTRSSYYRYDLDYWGQGTTVTVSS VL: DIQMTQSPSSLSASVGDRVTITCKASQDVKTALAWYQQKPGKAPKLLIYSASYRYTGVPSRFSGSGSGTDFTFTISSLQPEDIATYYCHQHYTTPWTFGGGTKLEIK	0.00011
4) TIGIT-6 chimeric antibody (antibody, human IgG1, kappa, V domains shown, also called 6VH + 6VL) VH: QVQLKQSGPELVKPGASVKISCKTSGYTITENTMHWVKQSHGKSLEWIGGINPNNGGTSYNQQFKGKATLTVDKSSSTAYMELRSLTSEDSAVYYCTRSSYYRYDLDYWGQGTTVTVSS VL: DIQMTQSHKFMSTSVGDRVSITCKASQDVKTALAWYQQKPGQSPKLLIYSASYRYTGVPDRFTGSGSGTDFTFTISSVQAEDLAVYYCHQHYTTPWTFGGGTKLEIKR	5.3e-05
